Experiment: NCI Yeast Anticancer Drug Screen. Data for the sgs1 mgt1 strain (AID 161);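 further: 0% = growth of cultures given vehicle only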
Conditions: S. cerevisiae sgs1 mgt1 strain, at 50.0 µM, hits give high values
About 79,000 compounds went through this panel and 15% of them were active in at least one assay; those are over-represented in the sample as a whole.
# growth inhibition listing for each entry below
Numbers only; they are read as %.

Here are 3 compounds together with their reported answers.
| COMPOUND | READOUT_UNITS | growth inhibition |
| --- | --- | --- |
| CCOC(=O)C(C)F (centres undefined) | % | 1.55 |
| c1ccc(N=C(Nc2ccccc2)N2CCCC2)cc1 | % | -28.1 |
| CCOC(=O)CNC(=O)C(Cc1ccccc1)NC(=O)CNC(=O)OCc1ccccc1 (centres undefined) | % | 15.5 |

input: Given Cc1ccc(S(=O)(=O)OCC2CC=CCC2COS(=O)(=O)c2ccc(C)cc2)cc1 (centres undefined) , state its recorded growth inhibition.
output: -9.75
